Source listed as PubChem BioAssay (NCATS).

- Tested on: Hek293T
- EXPERIMENT DESCRIPTION: Primary qHTS to identify gynecologic anti-cancer compounds using libraries of approved drugs and bioactive compounds (AID 1345084); also: nearly all actives have a fitted effect of over 55% in size
- STUDY CONDITIONS: Gynecologic cancer cell panel viability, ATPlite luminescence, 48 h, control line for the selectivity index; series mostly up to 57.5 µM
Inconclusive results are not listed. The source made the active and inactive calls. Calls follow the shape of the dose curve; as a rule, active = well fitted cell-killing curve with a large enough effect; inconclusive = small, poorly fitted or top-dose-only effect, or effect the other way; inactive = flat fitted curve, though single readings scatter.
Return exactly one item of active, inactive

Please review the following examples before continuing.
Cc1sc2c(c1C)C(c1ccc(Cl)cc1)=N[C@@H](CC(=O)Nc1ccc(OCCOCCOCCOCCNc3cccc4c3C(=O)N(C3CCC(=O)NC3=O)C4=O)cc1)c1nnc(C)n1-2 (some centres undefined)	inactive
O=c1[nH]c2cccc(N3CCN(Cc4ccc(-c5ccccc5)cc4)CC3)c2o1	inactive
O=C(C(Cc1cccc(C(F)(F)F)c1)NS(=O)(=O)c1cc(F)c2c(c1)CCNC2)N1CCCC1 (centres undefined)	inactive
Fc1ccc(-c2cncc(CN3CCN(c4cccc5c4OCCO5)CC3)c2)cc1	inactive
O=C(Nc1ccccc1Cl)c1cnc2ccc(C3CCNCC3)cn12	inactive
Cc1onc(-c2ccccc2)c1C(=O)N1CCN(c2ccc([N+](=O)[O-])cc2Cl)CC1	inactive
CCN(CC)C(=O)c1ccc(Nc2nc(OCC3CCCCC3)c3[nH]cnc3n2)cc1	inactive
Cn1ncnc1[C@@H]1c2n[nH]c(=O)c3cc(F)cc(c23)N[C@H]1c1ccc(F)cc1	inactive
Cc1ccc(NC(=O)c2ccc(CN3CCNCC3)cc2)cc1Nc1nccc(-c2cccnc2)n1	active
O=S(=O)(c1ccccc1)N(CC(F)(F)F)c1ccc(C(O)(C(F)(F)F)C(F)(F)F)cc1	inactive

Query block: Kindly provide the recorded test outcome for the following compound: CC[C@@H](C)Nc1cc(C(=O)NC2CC3CC[C@@H](C2)N3c2ccc(C(=O)C3CC3)cn2)c(C)cc1C(N)=O (some centres undefined)
Result block: active

Query block: Kindly provide the recorded test outcome for the following compound: "O[C@@](Cc1ncc(CC2(C(F)(F)F)CC2)[nH]1)(c1ccc(-n2cccn2)cc1)C(F)(F)F"
Result block: inactive

Query block: Kindly provide the recorded test outcome for the following compound: C=C1C(=O)OC2CC(C)C(CCC(C)=O)=CCC12 (centres undefined)
Result block: inactive

Query block: Kindly provide the recorded test outcome for the following compound: "CNC(=O)c1cc(Oc2ccc(NC(=O)c3cccc(C(F)(F)F)c3)cc2)ccn1"
Result block: inactive

Query block: Kindly provide the recorded test outcome for the following compound: COc1c(C(O)CC(C)C)ccc2c1C(=O)OCc1cc(C)cc(O)c1O2 (centres undefined)
Result block: inactive

Query block: Kindly provide the recorded test outcome for the following compound: CC1OC2OC(=O)C3(C)CC4C5(CO5)C5=CC(=O)OC(C)(C)C5=CC(=O)C4(C)C(C1=O)C23 (centres undefined)
Result block: inactive

Query block: Kindly provide the recorded test outcome for the following compound: "N#Cc1ccc(COc2ccc(-c3cccc4nc(NC(=O)C5CC5)nn34)cc2)cn1"
Result block: inactive

Query block: Kindly provide the recorded test outcome for the following compound: COc1ccc(NC(=O)C2C[C@H](C)CC[C@H]2C(C)C)cc1 (some centres undefined)
Result block: inactive

Query block: Kindly provide the recorded test outcome for the following compound: CCc1cc2c(cc1CC)CC(NCC(O)c1ccc(O)c3[nH]c(=O)ccc13)C2 (centres undefined)
Result block: inactive
